Documented EC50 across a set of molecules
# target-or-system: pFGFR4 in Huh7 cells (Homo sapiens (Human), UniProt P22455)
# Sequence (P22455 22-802): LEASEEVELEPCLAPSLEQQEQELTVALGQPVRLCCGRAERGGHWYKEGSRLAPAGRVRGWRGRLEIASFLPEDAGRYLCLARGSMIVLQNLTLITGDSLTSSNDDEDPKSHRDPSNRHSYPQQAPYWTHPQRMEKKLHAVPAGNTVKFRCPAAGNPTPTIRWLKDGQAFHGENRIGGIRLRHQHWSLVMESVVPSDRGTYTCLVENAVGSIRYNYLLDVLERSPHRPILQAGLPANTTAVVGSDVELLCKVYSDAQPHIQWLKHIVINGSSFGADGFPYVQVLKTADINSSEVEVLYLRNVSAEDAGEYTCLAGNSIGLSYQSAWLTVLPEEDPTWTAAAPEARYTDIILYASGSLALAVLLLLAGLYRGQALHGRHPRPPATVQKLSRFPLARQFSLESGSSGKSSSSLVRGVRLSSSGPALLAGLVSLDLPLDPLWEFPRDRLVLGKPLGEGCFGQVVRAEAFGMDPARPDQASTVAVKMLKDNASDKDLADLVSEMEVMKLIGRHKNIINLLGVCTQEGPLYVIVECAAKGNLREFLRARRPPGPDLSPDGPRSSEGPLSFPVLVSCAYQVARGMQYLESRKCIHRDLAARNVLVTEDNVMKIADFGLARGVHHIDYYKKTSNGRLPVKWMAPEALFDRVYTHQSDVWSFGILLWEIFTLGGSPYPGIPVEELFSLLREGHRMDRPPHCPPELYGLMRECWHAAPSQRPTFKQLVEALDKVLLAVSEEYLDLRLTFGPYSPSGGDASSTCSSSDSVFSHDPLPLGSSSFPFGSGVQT
# protocol-summary: FGFR4 signaling, Meso Scale assay (MSD), Method B, Huh7
parameter: EC50

>  <molecule>
C=CC(=O)Nc1ccc(C(F)(F)F)cc1Nc1ncc2c(n1)N(C)C(=O)N(c1cc(OC)cc(OC)c1)C2

>  <parameter>
EC50

>  <meas-value>
101 to 500 nM

$$$$
>  <molecule>
C=CC(=O)Nc1ccccc1Nc1ncc2c(n1)N(CCF)C(=O)N(c1cc(OC)cc(OC)c1Cl)C2

>  <parameter>
EC50

>  <meas-value>
< 100 nM

$$$$
>  <molecule>
C=CC(=O)Nc1ccccc1Nc1ncc2c(n1)N(CC(O)CO)C(=O)N(c1cc(OC)cc(OC)c1)C2 (centres unmarked)

>  <parameter>
EC50

>  <meas-value>
> 1000 nM

$$$$
>  <molecule>
C=CC(=O)N[C@H]1CCCC[C@H]1Nc1ncc2c(n1)N(Cc1cscn1)C(=O)N(c1c(Cl)c(OC)cc(OC)c1Cl)C2

>  <parameter>
EC50

>  <meas-value>
101 to 500 nM

$$$$
>  <molecule>
C=CC(=O)NC1COCC1Nc1ncc2c(n1)N(C)C(=O)N(c1cc(C(=O)Nc3cccc(C(C)(C)C#N)c3)ccc1Cl)C2 (centres unmarked)

>  <parameter>
EC50

>  <meas-value>
101 to 500 nM

$$$$
>  <molecule>
C=CC(=O)Nc1cc(F)ccc1Nc1ncc2cc(-c3c(Cl)c(OC)cc(OC)c3Cl)c(=O)n(C)c2n1

>  <parameter>
EC50

>  <meas-value>
< 100 nM

$$$$
>  <molecule>
C=CC(=O)N[C@H]1CCCC[C@H]1Nc1ncc2c(n1)N(C)C(=O)N(c1c(Cl)c(OCC)cc(OCC)c1Cl)C2

>  <parameter>
EC50

>  <meas-value>
501 to 999 nM

$$$$
>  <molecule>
C=CC(=O)Nc1ccccc1Nc1ncc2c(n1)N(Cc1cn[nH]c1)C(=O)N(c1c(Cl)c(OC)cc(OC)c1Cl)C2

>  <parameter>
EC50

>  <meas-value>
< 100 nM

$$$$
>  <molecule>
C=CC(=O)Nc1ccccc1Nc1ncc2c(n1)N(C)C(=O)N(c1c(F)c(OC)cc(OC)c1F)C2

>  <parameter>
EC50

>  <meas-value>
< 100 nM

$$$$
>  <molecule>
C=CC(=O)Nc1ccccc1Nc1ncc2c(n1)N(CC1CC1)C(=O)N(c1cc(OC)cc(OC)c1)C2

>  <parameter>
EC50

>  <meas-value>
< 100 nM

$$$$
>  <molecule>
C=CC(=O)Nc1ccccc1Nc1ncc2c(n1)N(CC(F)F)C(=O)N(c1cc(OC)cc(OC)c1Cl)C2

>  <parameter>
EC50

>  <meas-value>
< 100 nM

$$$$
>  <molecule>
C=CC(=O)Nc1cc(C)ccc1Nc1ncc2cc(-c3c(Cl)c(OC)cc(OC)c3Cl)c(=O)n(C)c2n1

>  <parameter>
EC50

>  <meas-value>
< 100 nM

$$$$
>  <molecule>
C=CC(=O)Nc1cc(C(F)(F)F)ccc1Nc1ncc2c(n1)N(C)C(=O)N(c1cc(OC)cc(OC)c1)C2

>  <parameter>
EC50

>  <meas-value>
< 100 nM

$$$$
>  <molecule>
C=CC(=O)Nc1ccccc1Nc1ncc2c(n1)N(C)C(=O)N(c1cc(OC)cc(OC)c1)C2

>  <parameter>
EC50

>  <meas-value>
101 to 500 nM

$$$$
